Tested on: LXRa homodimer (NR concentration 270 nM)
Assay: PBM binding z-score (relative to random genomic background probes); higher = stronger binding; sequences stand for … in GC…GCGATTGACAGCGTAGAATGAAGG
Endpoint: PBM binding z-score
# print the numeric value only

TGGAGTAGGTTACCAATGGGGCATTCAGCTTTCT = -0.0874
TCTTGTAGATCTGCAGGTTAAGAAAGCTGGCCAA = -0.113
ATATCTAGGTAAAGTTCAGTGAAAGATCGATAGA = 1.43
CGAACGAGGGCATAAGTTGATAGCAAATGCCGAT = -0.319
AGAATGAGGTTATTAAGATAAGGGAATTGCGGTC = -0.0371
GCTCGGAGGACAAGGTCAGATCTTTGTCCGTAGA = -0.175
TCGAGTAGGTTAGTCGGGGCATTCAGCCAACATA = -0.628
ACTTACAGGTCAACGAGGTTATAGCACGCGTATA = 3.32
ATATGTAGGTTACATACGGGTCATTCAGGCTATG = 1.98
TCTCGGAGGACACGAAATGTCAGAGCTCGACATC = -0.2

Given item `TCATATAGGTAAATGCTAGCTGAAAGTCCGATCT` , the value recorded as its PBM binding z-score is -0.000947

Given item `CTACCAAGGTGAACAAGGTCGGTGATTACTATTC` , the value recorded as its PBM binding z-score is -0.361

###

Test system: RARg homodimer (NR concentration 270 nM)
Assay: PBM binding z-score (relative to random genomic background probes); higher = stronger binding; sequences stand for … in GC…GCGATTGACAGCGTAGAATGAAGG
Endpoint: PBM binding z-score
# print the numeric value only

Worked cases, PBM binding z-score given:
TGAATCAGGTTAAAGATCAGGGAACGTGGCGTCG = 0.611
ATAGAAAGGTCGTGAGGTGAGTATACAGAAAGGC = 4.01
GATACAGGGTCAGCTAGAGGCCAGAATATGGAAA = 4.78
GCTGCTATGTCAACTGATGGTCAGCTAAAGCTCG = 0.101
CGAACTAGGTCAGAAAAGGACAGTGAAGGATGAT = 3.84

Given item `TCAGACAGGTGAAGGGAACTCAGGTACGCAGTCG` , the value recorded as its PBM binding z-score is 0.498

Given item `ACTAGTTGGTCAGCTGCGGTCACACACAATTCGG` , the value recorded as its PBM binding z-score is 1.87

Given item `GCTAGTTGGTCAGTAAAAGGTCACCCACCGGTCG` , the value recorded as its PBM binding z-score is 4.94

Given item `TAGGCTAGGTCAGATCGGGCCAGTATACGCTATA` , the value recorded as its PBM binding z-score is 3.61

Given item `CGTCCCAGGTCAAAGGTCAGTGAAGAGATGACGG` , the value recorded as its PBM binding z-score is 7.02

Given item `ATCCCTAGGTAACCAAGTTCAGTGAATGCCGAAC` , the value recorded as its PBM binding z-score is 0.374

###

// values below are reported PBM binding z-score
Tested on: LXRb homodimer (NR concentration 270 nM)
Assay: PBM binding z-score (relative to random genomic background probes); higher = stronger binding; sequences stand for … in GC…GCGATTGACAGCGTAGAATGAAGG
# print the numeric value only

Worked cases, PBM binding z-score given:
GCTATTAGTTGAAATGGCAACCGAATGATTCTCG = -0.166
GGACCGAGGGCATTCGAGTTGATAGCATGGCGAT = -1.34
TCTGCTAGGTCAATTGGTCAGCTAACGAGCTGCC = 0.648
TCTTGTAGATCAGCAGGTTAAGAGAGCTGGCCAA = -0.638
ATCGAACGGTCGTGAGGTGAGTATACAGAAAGGC = -0.457

Okay, now this sequence:
Given item `GCTGCTAGGTCAGGTTGGTAAGCTAACGGGTACG` , the value recorded as its PBM binding z-score is -0.406
